target: ATP-dependent translocase ABCB1 (Homo sapiens, UniProt P08183); test: Inhibition of MDR1-mediated efflux-pump activity in mouse L5178Y cells expressing human MDR1 assessed as mean fluorescence intensity at 2 uM preincubated for 10 mins followed by rhodamine-123 addition measured after 20 mins by flow cytometry (reference value: 7.1 to 18.6); assay type: cell-based
Sequence (P08183 whole entry): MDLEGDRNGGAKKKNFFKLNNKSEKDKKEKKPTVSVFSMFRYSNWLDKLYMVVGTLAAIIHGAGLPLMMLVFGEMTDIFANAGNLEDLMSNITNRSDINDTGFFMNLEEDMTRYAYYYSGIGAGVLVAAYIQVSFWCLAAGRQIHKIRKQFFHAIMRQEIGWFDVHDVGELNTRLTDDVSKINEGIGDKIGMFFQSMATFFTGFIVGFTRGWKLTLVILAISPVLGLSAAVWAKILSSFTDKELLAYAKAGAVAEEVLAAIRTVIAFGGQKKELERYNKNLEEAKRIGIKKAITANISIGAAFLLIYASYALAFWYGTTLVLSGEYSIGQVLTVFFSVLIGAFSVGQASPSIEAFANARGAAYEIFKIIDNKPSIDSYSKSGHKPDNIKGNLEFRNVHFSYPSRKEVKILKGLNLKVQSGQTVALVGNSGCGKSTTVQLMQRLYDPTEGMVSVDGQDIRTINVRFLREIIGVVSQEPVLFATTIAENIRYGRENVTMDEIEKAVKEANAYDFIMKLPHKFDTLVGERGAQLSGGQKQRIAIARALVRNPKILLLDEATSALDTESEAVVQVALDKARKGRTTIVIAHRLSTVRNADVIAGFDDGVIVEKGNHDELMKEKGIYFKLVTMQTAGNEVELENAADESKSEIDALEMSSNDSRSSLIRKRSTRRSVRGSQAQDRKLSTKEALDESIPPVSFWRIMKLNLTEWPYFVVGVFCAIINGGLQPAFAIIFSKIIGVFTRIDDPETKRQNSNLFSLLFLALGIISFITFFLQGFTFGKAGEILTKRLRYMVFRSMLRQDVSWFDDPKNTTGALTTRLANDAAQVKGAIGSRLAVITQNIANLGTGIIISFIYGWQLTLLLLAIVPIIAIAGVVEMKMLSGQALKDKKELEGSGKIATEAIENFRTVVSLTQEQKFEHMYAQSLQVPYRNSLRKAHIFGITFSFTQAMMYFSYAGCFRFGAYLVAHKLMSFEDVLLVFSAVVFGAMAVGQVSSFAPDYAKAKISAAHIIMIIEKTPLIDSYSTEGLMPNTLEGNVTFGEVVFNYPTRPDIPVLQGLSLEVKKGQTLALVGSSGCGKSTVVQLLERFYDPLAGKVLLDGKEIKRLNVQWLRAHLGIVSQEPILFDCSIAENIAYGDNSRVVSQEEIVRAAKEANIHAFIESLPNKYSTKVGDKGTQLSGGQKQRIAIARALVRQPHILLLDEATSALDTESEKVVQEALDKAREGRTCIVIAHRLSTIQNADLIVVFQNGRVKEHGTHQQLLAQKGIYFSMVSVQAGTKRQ
Listed here are compounds together with their documented Flu intensity.
metric name: Flu intensity

* CC(=O)C[C@@H](C)[C@H]1CC[C@@]2(C)[C@@H]3C(=O)C=C4[C@@H](CC[C@H](O)[C@]4(C)CO)[C@]3(C)CC[C@]12C [BALSAMINOL D] | 10.3
* C[C@H](C/C=C/C(C)(C)O)[C@H]1CC[C@@]2(C)[C@@H]3[C@@H](O)C=C4[C@@H](CC[C@H](O)C4(C)C)[C@]3(C)CC[C@]12C | 73.1
* CO[C@H]1C=C2[C@@H](CC[C@H](OC(=O)/C=C/c3ccccc3)C2(C)C)[C@]2(C)CC[C@]3(C)[C@@H]([C@H](C)C[C@H](C=C(C)C)OC(=O)/C=C/c4ccccc4)CC[C@@]3(C)[C@H]12 [KARAVOATE P] | 6.9
* CO[C@H]1C=C2[C@@H](CC[C@H](OC(=O)c3ccccc3)C2(C)C)[C@]2(C)CC[C@]3(C)[C@@H]([C@H](C)C/C=C/C(C)(C)O)CC[C@@]3(C)[C@H]12 | 17.9
* CO[C@H]1C=C2[C@@H](CC[C@H](O)C2(C)C)[C@]2(C)CC[C@]3(C)[C@@H]([C@H](C)C[C@H](C=C(C)C)OC(=O)c4ccc([N+](=O)[O-])cc4)CC[C@@]3(C)[C@H]12 [KARAVOATE I] | 14.3
* CC(C)=C[C@H](O)C[C@@H](C)[C@H]1CC[C@@]2(C)[C@@H]3[C@@H](O)C=C4[C@@H](CC[C@H](O)C4(C)C)[C@]3(C)CC[C@]12C [BALSAMINOL F] | 20.1
* CO[C@H]1C=C2[C@@H](CC[C@H](O)C2(C)C)[C@]2(C)CC[C@]3(C)[C@@H]([C@H](C)C[C@H](C=C(C)C)O[C@@H]4O[C@H](CO)[C@@H](O)[C@H](O)[C@H]4O)CC[C@@]3(C)[C@H]12 | 12.4
* CC(C)=CC(=O)C[C@@H](C)[C@H]1CC[C@@]2(C)[C@@H]3C(=O)C=C4[C@@H](CC[C@H](O)[C@]4(C)CO)[C@]3(C)CC[C@]12C [BALSAMINOL C] | 22.3
* CO[C@H]1C=C2[C@@H](CC[C@H](OC(=O)c3ccccc3)C2(C)C)[C@]2(C)CC[C@]3(C)[C@@H]([C@H](C)C[C@H](C=C(C)C)OC(=O)c4ccccc4)CC[C@@]3(C)[C@H]12 [KARAVOATE H] | 9
* COc1ccc(C(=O)O[C@@H](C=C(C)C)C[C@@H](C)[C@H]2CC[C@@]3(C)[C@@H]4[C@@H](OC)C=C5[C@@H](CC[C@H](O)C5(C)C)[C@]4(C)CC[C@]23C)cc1 [KARAVOATE M] | 12.3
